ASSAY_SYSTEM: T1, G9a and GLP (Homo sapiens, UniProt Q96KQ7+Q9H9B1)
T1 sequence (Q96KQ7 2-1210 limits assumed): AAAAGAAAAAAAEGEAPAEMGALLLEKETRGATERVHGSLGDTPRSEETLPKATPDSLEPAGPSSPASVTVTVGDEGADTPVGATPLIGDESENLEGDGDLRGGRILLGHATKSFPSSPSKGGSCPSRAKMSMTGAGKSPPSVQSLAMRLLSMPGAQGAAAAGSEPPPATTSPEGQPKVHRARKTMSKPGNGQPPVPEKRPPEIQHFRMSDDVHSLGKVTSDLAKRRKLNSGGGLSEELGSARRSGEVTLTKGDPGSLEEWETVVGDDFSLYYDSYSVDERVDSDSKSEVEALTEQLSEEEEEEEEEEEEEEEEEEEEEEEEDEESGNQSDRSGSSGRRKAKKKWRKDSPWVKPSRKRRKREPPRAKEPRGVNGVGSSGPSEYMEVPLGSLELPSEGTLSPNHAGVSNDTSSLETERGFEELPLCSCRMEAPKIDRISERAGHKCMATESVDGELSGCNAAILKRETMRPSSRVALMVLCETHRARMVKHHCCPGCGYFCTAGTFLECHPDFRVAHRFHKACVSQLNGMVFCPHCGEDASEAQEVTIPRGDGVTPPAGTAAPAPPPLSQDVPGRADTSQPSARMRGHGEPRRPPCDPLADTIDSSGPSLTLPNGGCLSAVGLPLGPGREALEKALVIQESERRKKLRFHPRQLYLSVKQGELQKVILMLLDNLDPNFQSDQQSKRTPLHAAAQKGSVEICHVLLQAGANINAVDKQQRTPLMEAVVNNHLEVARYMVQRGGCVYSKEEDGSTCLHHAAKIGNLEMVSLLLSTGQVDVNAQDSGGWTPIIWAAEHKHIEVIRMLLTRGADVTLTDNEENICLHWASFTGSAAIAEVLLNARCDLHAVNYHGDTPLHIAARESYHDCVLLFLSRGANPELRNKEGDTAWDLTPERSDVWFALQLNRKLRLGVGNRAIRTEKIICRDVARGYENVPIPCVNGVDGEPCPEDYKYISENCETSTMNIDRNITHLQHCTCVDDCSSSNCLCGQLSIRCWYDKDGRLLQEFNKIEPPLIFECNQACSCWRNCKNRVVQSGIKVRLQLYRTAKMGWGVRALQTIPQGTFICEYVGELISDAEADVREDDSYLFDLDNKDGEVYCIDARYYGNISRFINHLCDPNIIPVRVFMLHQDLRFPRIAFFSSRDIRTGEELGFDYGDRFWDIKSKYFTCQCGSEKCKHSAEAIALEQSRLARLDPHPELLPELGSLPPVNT
T1 sequence (Q9H9B1 2-1298 limits assumed): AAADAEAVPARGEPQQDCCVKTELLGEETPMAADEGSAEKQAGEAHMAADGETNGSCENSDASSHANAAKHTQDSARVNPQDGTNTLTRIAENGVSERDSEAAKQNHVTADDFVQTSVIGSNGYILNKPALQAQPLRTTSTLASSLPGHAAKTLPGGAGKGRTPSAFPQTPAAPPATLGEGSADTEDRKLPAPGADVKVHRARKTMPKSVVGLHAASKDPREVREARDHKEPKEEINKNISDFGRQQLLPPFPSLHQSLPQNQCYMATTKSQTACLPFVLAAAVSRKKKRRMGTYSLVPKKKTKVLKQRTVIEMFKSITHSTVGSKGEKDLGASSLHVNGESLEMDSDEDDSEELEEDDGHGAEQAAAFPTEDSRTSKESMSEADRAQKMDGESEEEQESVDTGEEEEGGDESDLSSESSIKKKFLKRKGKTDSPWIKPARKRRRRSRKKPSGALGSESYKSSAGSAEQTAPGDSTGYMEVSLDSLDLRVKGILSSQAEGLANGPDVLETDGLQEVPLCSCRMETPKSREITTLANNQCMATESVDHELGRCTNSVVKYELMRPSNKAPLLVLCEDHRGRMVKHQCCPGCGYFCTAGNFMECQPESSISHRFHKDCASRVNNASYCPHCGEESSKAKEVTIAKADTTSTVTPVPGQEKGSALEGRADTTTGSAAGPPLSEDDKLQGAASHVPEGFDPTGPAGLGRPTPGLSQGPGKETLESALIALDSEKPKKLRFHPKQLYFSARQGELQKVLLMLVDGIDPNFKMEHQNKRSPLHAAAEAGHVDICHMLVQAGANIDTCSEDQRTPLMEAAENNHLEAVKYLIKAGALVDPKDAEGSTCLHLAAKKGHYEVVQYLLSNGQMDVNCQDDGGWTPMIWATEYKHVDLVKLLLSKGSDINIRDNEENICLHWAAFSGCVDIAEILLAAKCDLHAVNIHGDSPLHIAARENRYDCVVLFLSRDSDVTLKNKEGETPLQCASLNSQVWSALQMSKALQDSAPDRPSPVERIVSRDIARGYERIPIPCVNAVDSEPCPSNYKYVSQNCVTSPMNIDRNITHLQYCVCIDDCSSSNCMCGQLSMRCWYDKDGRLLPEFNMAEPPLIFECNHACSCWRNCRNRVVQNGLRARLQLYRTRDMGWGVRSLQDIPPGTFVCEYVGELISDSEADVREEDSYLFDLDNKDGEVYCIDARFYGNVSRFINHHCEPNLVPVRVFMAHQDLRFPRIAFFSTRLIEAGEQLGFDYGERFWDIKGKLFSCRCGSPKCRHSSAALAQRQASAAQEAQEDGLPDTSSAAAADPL
TEST_PROTOCOL: Triple SILAC pull-down after UNC0638 treatment of 293T cells, DMSO/UNC0638 ratio of protein captured by 3×MBT;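 further: mass spectrometry (Q-Exactive) SILAC quantitation, DMSO/UNC0638 ratio computed after subtracting 3×MBTD355N mutant pull-down background, only proteins with at least twofold 3×MBT over mutant signal considered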
Type: cell-based
Design: cells were treated for 24 hours with UNC0638 at 2.5 μM or DMSO vehicle control; endogenous in cells; host or cells: HEK 293T
TEST_CONDITIONS: average of UNC Light and UNC Heavy experiments
Let's look at some molecules and their measured Relative to UNC0638 Average.
Numeric only. Scale: log base 2

Below, 3 molecules whose answers are already recorded.
>>> recorded_result("TRMT61A (protein, UniProt Q96FX7 2-289, looked up) tRNA …: SFVAYEELIKEGDTAILSLGHGAMVAVRVQRGAQTQTRHGVLRHSVDLIGRPFGSKVTCGRGGWVYVLHPTPELWTLNLPHRTQILYSTDIALITMMLELRPGSVVCESGTGSGSVSHAIIRTIAPTGHLHTVEFHQQRAEKAREEFQEHRVGRWVTVRTQDVCRSGFGVSHVADAVFLDIPSPWEAVGHAWDALKVEGGRFCSFSPCIEQVQRTCQALAARGFSELSTLEVLPQVYNVRTVSLPPPDLGTGTDGPAGSDTSPFRSGTPMKEAVGHTGYLTFATKTPG")
0.11
>>> recorded_result("PEF1 (protein, UniProt Q9UBV8 1-284, looked up) Peflin: MASYPYRQGCPGAAGQAPGAPPGSYYPGPPNSGGQYGSGLPPGGGYGGPAPGGPYGPPAGGGPYGHPNPGMFPSGTPGGPYGGAAPGGPYGQPPPSSYGAQQPGLYGQGGAPPNVDPEAYSWFQSVDSDHSGYISMKELKQALVNCNWSSFNDETCLMMINMFDKTKSGRIDVYGFSALWKFIQQWKNLFQQYDRDRSGSISYTELQQALSQMGYNLSPQFTQLLVSRYCPRSANPAMQLDRFIQVCTQLQVLTEAFREKDTAVQGNIRLSFEDFVTMTASRML")
0.24
>>> recorded_result("NHP2L1: protein with methylated lysine identified in 3xMBT pull-down (protein, UniProt P55769 1-128, looked up) NHP2-like protein 1: MTEADVNPKAYPLADAHLTKKLLDLVQQSCNYKQLRKGANEATKTLNRGISEFIVMAADAEPLEIILHLPLLCEDKNVPYVFVRSKQALGRACGVSRPVIACSVTIKEGSQLKQQIQSIQQSIERLLV")
0.24

Entry under review: HNRNPD (protein, UniProt Q14103 2-355, looked up) Heterogeneous nuclear …: SEEQFGGDGAAAAATAAVGGSAGEQEGAMVAATQGAAAAAGSGAGTGGGTASGGTEGGSAESEGAKIDASKNEEDEGHSNSSPRHSEAATAQREEWKMFIGGLSWDTTKKDLKDYFSKFGEVVDCTLKLDPITGRSRGFGFVLFKESESVDKVMDQKEHKLNGKVIDPKRAKAMKTKEPVKKIFVGGLSPDTPEEKIREYFGGFGEVESIELPMDNKTNKRRGFCFITFKEEEPVKKIMEKKYHNVGLSKCEIKVAMSKEQYQQQQQWGSRGGFAGRARGRGGGPSQNWNQGYSNYWNQGYGNYGYNSQGYGGYGGYDYTGYNNYYGYGDYSNQQSGYGKVSRRGGHQNSYKPY . Reported Relative to UNC0638 Average? 0.18

Entry under review: NTHL1 (protein, UniProt P78549 23-304, looked up) Endonuclease III-like protein …: GCREEPGPLRRREAAAEARKSHSPVKRPRKAQRLRVAYEGSDSEKGEGAEPLKVPVWEPQDWQQQLVNIRAMRNKKDAPVDHLGTEHCYDSSAPPKVRRYQVLLSLMLSSQTKDQVTAGAMQRLRARGLTVDSILQTDDATLGKLIYPVGFWRSKVKYIKQTSAILQQHYGGDIPASVAELVALPGVGPKMAHLAMAVAWGTVSGIAVDTHVHRIANRLRWTKKATKSPEETRAALEEWLPRELWHEINGLLVGFGQQTCLPVHPRCHACLNQALCPAAQGL . Reported Relative to UNC0638 Average? 0.30

Numbers sourced from patent US20140274782A1.
